- assay.system: DPP-IV (Homo sapiens, UniProt P27487)
- Construct: DPP-IV activity from human colonic carcinoma cell extracts; endogenous in cells; nonidet-P40 extract
- Sequence (P27487 whole entry): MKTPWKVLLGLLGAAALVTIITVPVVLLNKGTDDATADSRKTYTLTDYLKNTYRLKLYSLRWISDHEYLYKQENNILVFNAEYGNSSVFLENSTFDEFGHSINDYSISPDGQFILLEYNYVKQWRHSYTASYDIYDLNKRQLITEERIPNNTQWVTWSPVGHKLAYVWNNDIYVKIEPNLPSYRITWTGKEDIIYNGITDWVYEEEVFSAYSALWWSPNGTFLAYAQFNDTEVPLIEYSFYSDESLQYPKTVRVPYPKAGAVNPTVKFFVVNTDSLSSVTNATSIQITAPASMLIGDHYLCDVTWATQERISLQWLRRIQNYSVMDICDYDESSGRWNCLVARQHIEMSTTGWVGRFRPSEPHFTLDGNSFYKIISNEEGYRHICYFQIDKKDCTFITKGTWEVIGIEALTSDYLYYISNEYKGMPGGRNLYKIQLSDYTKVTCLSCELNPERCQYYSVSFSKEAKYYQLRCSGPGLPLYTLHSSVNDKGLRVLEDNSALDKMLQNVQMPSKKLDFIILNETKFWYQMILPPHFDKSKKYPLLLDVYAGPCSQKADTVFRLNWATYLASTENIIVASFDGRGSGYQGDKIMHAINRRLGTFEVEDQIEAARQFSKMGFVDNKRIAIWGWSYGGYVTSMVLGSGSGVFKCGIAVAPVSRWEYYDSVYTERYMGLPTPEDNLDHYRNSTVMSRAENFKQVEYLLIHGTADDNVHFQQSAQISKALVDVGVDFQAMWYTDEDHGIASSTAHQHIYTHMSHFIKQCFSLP
- assay: Caco-2 DPP-IV Assay (inhibition of DPP-IV activity from human colonic carcinoma cell extracts)
- cond: Caco-2 cell extract; substrate H-Alanine-Proline-pNA; pH 7.4; room temperature, 10 minutes
- Description: As indicated above, all of the compounds of formula I, and their corresponding pharmaceutically acceptable acid addition salts, are useful in inhibiting DPP-IV. […] The endpoint is determined by measuring absorbance at 405 nm in a Molecular Devices UV Max microtiter plate reader. The potency of the test compounds as DPP-IV inhibitors, expressed as IC50, is calculated from 8-point, dose-response curves using a 4-parameter logistic function.
Parameter: IC50. Scope: all listed entries.
Answer with a number only, understood to be in nM.

Take a look at these entries with their results.
• N#C[C@@H]1CCCN1C(=O)[C@@H]1Cc2ccc(O)cc2CN1 = 4
• CCN(CC)CCCOc1ccc2c(c1)CNC(C(=O)N1CCCC1C#N)C2 (centres unmarked) = 10
• COc1cc2c(cc1OC)CC(C(=O)N1CCC[C@H]1C#N)NC2 (single isomer, unassigned; diastereomer b) [Ex. 7] = 13
• N#C[C@@H]1CCCN1C(=O)[C@@H]1Cc2ccc(OCC(=O)O)cc2CN1 = 10
• N#C[C@@H]1CCCN1C(=O)[C@@H]1Cc2ccccc2CN1 = 7.6

Can you look up the measured IC50 of `COc1ccc2c(c1)CN[C@H](C(=O)N1CCC[C@H]1C#N)C2` for me? 14

====

- assay.system: rat plasma DPP-IV (Rattus norvegicus, UniProt P14740)
- Construct: DPP-IV activity in human and rat plasma
- Sequence (P14740 37-767 limits assumed): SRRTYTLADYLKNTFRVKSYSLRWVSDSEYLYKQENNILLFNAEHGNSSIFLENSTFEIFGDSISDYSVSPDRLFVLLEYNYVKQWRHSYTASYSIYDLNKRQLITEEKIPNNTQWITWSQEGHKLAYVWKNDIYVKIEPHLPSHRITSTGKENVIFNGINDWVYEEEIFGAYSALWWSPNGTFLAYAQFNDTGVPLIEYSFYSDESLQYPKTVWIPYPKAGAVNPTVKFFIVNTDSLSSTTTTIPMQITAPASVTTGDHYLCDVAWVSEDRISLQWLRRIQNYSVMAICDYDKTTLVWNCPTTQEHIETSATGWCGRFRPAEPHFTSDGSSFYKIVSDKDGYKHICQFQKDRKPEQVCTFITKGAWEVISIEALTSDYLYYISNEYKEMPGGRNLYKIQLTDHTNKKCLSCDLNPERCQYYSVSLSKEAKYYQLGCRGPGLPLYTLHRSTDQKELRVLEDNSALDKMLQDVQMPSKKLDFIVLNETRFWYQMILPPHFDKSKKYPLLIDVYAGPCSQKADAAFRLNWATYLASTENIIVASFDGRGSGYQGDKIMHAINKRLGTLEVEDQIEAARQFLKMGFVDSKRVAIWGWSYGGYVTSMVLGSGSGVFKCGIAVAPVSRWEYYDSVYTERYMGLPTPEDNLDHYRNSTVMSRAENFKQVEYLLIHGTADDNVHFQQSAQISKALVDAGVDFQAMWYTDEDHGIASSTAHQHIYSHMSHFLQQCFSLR
- assay: Inhibition of DPP-IV activity in rat plasma
- cond: substrate H-Glycine-Proline-AMC, pH 7.8, room temperature, 20 min
reported.property: pIC50
Scale explanation: pIC50 corresponds to minus log10 of a concentration expressed in moles per litre.

Can you look up the measured pIC50 of `N#C[C@@H]1CCCN1C(=O)[C@@H]1Cc2ccc(OCc3ccccc3)cc2CN1` for me? 5.89

Next entry: COc1cc2c(cc1OC)CC(C(=O)N1CCC[C@H]1C#N)NC2 (single isomer, unassigned; diastereomer b) 7.11

Next entry: `CCCOc1ccc2c(c1)CN[C@H](C(=O)N1CCC[C@H]1C#N)C2` 6.50

Next entry: `COc1ccc2c(c1)CN[C@H](C(=O)N1CCC[C@H]1C#N)C2` 7.80

Next entry: `N#C[C@@H]1CCCN1C(=O)[C@@H]1Cc2ccccc2CN1` 6.10

Next entry: `N#C[C@@H]1CCCN1C(=O)[C@@H]1Cc2ccc(OCC(N)=O)cc2CN1` 7.92

====

- assay.system: DPP-IV (Homo sapiens, UniProt P27487)
- Construct: DPP-IV activity from human colonic carcinoma cell extracts; endogenous in cells; nonidet-P40 extract
- assay: Caco-2 DPP-IV Assay (inhibition of DPP-IV activity from human colonic carcinoma cell extracts)
- cond: Caco-2 cell extract; substrate H-Alanine-Proline-pNA; pH 7.4; room temperature, 10 minutes
reported.property: pIC50
Scale explanation: pIC50 corresponds to minus log10 of a concentration expressed in moles per litre.

- CCOCCOCCOc1ccc2c(c1)CN[C@H](C(=O)N1CCC[C@H]1C#N)C2: 8.00
- N#C[C@@H]1CCCN1C(=O)[C@@H]1Cc2ccc(OCC(N)=O)cc2CN1: 7.80
- N#C[C@@H]1CCCN1C(=O)[C@@H]1Cc2ccc(OCc3ccccc3)cc2CN1: 8.05

Here is another compound to look at.
Can you look up the measured pIC50 of `CCCOc1ccc2c(c1)CN[C@H](C(=O)N1CCC[C@H]1C#N)C2` for me? 8.10
